Target: Human Cav3.1 calcium channel (Homo sapiens)
Construct: expressed in transfected cells; host or cells: HEK-293 natClytin/TASK1+Cav3.1 cell line
Sequence (O43497 whole entry): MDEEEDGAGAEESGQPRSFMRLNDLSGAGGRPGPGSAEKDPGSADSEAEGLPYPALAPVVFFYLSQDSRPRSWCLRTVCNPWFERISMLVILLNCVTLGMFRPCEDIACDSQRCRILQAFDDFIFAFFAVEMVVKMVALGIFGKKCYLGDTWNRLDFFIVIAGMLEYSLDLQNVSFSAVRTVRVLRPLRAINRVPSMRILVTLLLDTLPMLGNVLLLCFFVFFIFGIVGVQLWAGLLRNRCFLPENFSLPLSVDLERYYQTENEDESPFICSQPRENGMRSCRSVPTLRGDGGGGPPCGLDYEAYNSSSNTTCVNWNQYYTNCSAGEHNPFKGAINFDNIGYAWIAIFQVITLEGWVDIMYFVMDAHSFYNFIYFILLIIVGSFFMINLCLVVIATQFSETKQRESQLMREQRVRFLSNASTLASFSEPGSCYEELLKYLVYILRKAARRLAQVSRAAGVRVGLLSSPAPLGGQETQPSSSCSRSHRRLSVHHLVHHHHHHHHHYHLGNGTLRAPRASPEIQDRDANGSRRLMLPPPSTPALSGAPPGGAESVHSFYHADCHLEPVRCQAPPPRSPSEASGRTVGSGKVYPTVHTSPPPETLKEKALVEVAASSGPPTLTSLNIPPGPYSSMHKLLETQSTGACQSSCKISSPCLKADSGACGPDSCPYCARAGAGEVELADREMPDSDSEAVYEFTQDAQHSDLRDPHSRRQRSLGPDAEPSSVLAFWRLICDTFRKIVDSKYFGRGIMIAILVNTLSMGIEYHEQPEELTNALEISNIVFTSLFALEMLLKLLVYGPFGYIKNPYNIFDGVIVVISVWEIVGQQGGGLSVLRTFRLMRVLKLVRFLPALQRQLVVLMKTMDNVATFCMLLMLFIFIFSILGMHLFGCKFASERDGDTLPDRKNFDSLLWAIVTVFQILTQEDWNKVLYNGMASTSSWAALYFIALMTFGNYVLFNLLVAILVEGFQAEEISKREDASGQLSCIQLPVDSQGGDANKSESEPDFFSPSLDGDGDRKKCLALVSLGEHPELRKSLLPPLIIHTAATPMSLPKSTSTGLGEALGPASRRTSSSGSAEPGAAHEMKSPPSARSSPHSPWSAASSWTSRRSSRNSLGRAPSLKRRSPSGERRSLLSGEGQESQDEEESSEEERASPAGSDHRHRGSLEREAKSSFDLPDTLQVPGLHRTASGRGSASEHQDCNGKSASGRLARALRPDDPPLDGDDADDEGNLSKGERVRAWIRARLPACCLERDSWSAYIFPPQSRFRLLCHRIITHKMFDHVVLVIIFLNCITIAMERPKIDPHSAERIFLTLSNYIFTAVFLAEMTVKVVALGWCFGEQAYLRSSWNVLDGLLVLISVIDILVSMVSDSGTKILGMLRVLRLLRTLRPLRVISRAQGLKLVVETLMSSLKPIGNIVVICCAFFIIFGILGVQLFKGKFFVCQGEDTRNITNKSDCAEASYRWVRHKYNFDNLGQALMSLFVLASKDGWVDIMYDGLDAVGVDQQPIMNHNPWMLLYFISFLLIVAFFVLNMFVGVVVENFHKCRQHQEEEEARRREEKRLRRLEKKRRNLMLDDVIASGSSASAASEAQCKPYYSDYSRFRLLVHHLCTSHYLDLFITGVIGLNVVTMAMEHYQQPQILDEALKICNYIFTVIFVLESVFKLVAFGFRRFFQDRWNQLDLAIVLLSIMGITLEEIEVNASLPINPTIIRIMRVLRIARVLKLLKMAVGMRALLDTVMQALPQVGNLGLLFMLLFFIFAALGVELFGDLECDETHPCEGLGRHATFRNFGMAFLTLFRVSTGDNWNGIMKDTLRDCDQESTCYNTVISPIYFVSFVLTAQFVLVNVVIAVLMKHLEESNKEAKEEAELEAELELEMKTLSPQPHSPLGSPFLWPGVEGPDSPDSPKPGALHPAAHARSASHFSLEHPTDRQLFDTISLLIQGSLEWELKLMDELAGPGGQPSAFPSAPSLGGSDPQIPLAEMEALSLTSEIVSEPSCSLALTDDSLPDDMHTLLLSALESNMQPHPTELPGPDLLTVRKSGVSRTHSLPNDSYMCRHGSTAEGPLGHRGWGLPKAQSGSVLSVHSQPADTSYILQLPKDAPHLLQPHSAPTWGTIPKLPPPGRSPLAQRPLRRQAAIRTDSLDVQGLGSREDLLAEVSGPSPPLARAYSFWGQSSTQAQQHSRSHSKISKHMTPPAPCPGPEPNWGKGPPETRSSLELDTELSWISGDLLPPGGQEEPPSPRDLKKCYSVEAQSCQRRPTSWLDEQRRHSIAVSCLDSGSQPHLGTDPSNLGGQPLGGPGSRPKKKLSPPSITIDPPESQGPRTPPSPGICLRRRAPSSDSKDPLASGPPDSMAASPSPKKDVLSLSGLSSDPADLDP
Test: Human Cav3.1 calcium channel patch clamp assay (SyncroPatch 384PE; single point and IC50, voltage dependent block)
Assay type: cell-based
Details: Testing Conc 1.25; HEK-293 natClytin/TASK1+Cav3.1 cell line, patch clamp
Please provide measured % Inhibition (Single Point Data) for the entries that follow.
Answers are plain numbers, in %.

- CC1(C)CCN1C(=O)CN1C2CCC1CN(Cc1nc3c(Cl)cc(F)cc3[nH]1)C2: 103.03
- COc1cccc2[nH]c(CN3CC4CCC(C3)N4CC(=O)NC(C)(C)C)nc12: 76.034
- COc1cc(NC(=O)CN2C[C@@H]3C[C@H]2CN3CC(=O)NC(C)(C)C)ccc1F: 84.193

Continue with the next compound.
So, COc1cc(F)cc(NC(=O)CN2C[C@@H]3C[C@H]2CN3CC(=O)NC(C)(C)C)c1 ? Its % Inhibition (Single Point Data) was 93.716

All values here come from patent US20250213558A1.
